Measured enrichment ratio of individual entries
B1: PhoQ; a variant is named by its letters at X, in order, P23837 (parent)
chain: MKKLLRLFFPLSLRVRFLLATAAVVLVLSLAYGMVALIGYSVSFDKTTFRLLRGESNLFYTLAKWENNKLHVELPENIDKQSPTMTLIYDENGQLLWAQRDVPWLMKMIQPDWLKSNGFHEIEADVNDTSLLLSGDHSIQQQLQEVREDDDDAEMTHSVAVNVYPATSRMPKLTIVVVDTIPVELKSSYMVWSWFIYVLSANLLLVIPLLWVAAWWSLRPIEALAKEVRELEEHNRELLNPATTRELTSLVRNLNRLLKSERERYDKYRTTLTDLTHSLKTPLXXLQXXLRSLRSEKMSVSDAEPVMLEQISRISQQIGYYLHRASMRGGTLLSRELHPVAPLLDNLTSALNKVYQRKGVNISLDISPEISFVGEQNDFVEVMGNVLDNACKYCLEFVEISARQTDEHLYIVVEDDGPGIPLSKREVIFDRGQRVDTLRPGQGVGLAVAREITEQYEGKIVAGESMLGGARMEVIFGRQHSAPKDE

variants of: B1; test: enrichment ratio after two sorts for PhoP signalling (ratio (wild type AVST 3.29)); higher = more functional; conditions: with PhoP (E. coli)
Whole data set: some 140,000 sequences, median “enrichment ratio after two sorts for PhoP signalling” near 0, cut for the highest 2% near 11. The sample as a whole holds a higher share of the highest values than the screen did.
REPORTED_ENDPOINT: enrichment ratio

MUTATION_KEY: PMYI
REPORTED_ENDPOINT: enrichment ratio
VAL: ≤ 0.25
//
MUTATION_KEY: WICL
REPORTED_ENDPOINT: enrichment ratio
VAL: ≤ 0.25
//
MUTATION_KEY: NEYD
REPORTED_ENDPOINT: enrichment ratio
VAL: ≤ 0.25
//
MUTATION_KEY: PMNV
REPORTED_ENDPOINT: enrichment ratio
VAL: ≤ 0.25
//
MUTATION_KEY: GGVS
REPORTED_ENDPOINT: enrichment ratio
VAL: ≤ 0.25
//
MUTATION_KEY: TCYD
REPORTED_ENDPOINT: enrichment ratio
VAL: ≤ 0.25
//
MUTATION_KEY: KCAQ
REPORTED_ENDPOINT: enrichment ratio
VAL: ≤ 0.25
//
MUTATION_KEY: AQRL
REPORTED_ENDPOINT: enrichment ratio
VAL: ≤ 0.25
//
MUTATION_KEY: PFMM
REPORTED_ENDPOINT: enrichment ratio
VAL: ≤ 0.25
//
MUTATION_KEY: DQSP
REPORTED_ENDPOINT: enrichment ratio
VAL: ≤ 0.25
//
MUTATION_KEY: SNNW
REPORTED_ENDPOINT: enrichment ratio
VAL: 1.31
//
MUTATION_KEY: SEGG
REPORTED_ENDPOINT: enrichment ratio
VAL: 9.05
//
MUTATION_KEY: SNCS
REPORTED_ENDPOINT: enrichment ratio
VAL: 19.6
//
MUTATION_KEY: AICL
REPORTED_ENDPOINT: enrichment ratio
VAL: 17.5
//
MUTATION_KEY: FLEE
REPORTED_ENDPOINT: enrichment ratio
VAL: ≤ 0.25
//
MUTATION_KEY: IQCS
REPORTED_ENDPOINT: enrichment ratio
VAL: ≤ 0.25
//
MUTATION_KEY: NQPT
REPORTED_ENDPOINT: enrichment ratio
VAL: ≤ 0.25
//
MUTATION_KEY: SAME
REPORTED_ENDPOINT: enrichment ratio
VAL: 0.508
//
MUTATION_KEY: AKCL
REPORTED_ENDPOINT: enrichment ratio
VAL: 3.3
//
MUTATION_KEY: MIHT
REPORTED_ENDPOINT: enrichment ratio
VAL: ≤ 0.25
//
MUTATION_KEY: AQCL
REPORTED_ENDPOINT: enrichment ratio
VAL: 16
//
MUTATION_KEY: TCDD
REPORTED_ENDPOINT: enrichment ratio
VAL: ≤ 0.25
//
MUTATION_KEY: PPWA
REPORTED_ENDPOINT: enrichment ratio
VAL: ≤ 0.25
//
MUTATION_KEY: GSEH
REPORTED_ENDPOINT: enrichment ratio
VAL: ≤ 0.25
//
MUTATION_KEY: TCGD
REPORTED_ENDPOINT: enrichment ratio
VAL: 20.3
//
MUTATION_KEY: IAQI
REPORTED_ENDPOINT: enrichment ratio
VAL: ≤ 0.25
//
MUTATION_KEY: LNAI
REPORTED_ENDPOINT: enrichment ratio
VAL: ≤ 0.25
